Hey, just so you know, these numbers are from patent US11992535B2.

# tested.on: aggregated MBP-HTT(1-89)Q46-His(6×) (Exonl-Q46) protein (Q46 protein aggregates) (Homo sapiens (Human), UniProt P42858, INS38QQQQQQQQQQQQQQQQQQQQQQQQQ)
# Sequence (P42858 other isoform, or with tags, fused parts or gaps, stated change not applied): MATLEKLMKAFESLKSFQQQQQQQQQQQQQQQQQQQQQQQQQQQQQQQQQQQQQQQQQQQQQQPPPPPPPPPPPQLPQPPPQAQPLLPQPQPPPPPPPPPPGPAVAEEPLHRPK
# procedure.text: Q46 Radioligand Binding Assay
# measurement.parameters: same radioligand displacement on Exonl-Q46 aggregates; read-out: Q46_RBA EC50_
pEC50: −log10 of the molar value.
readout.kind: pEC50

Lookup: Return reported pEC50; argument: COc1ccc(COc2ccc3c(c2)CN(C(=O)OCc2ccc(OC)nc2)CC3)nc1
Found: > 7.00

====

# tested.on: aggregated MBP-HTT(1-89)Q46-His(6×) (Exonl-Q46) protein (Q46 protein aggregates) (Homo sapiens (Human), UniProt P42858, INS38QQQQQQQQQQQQQQQQQQQQQQQQQ)
# procedure.text: Q46 Radioligand Binding Assay
# measurement.parameters: displacement of 0.3 nM [3H3-methyl]-5-((5-methoxypyridin-2-yl)methoxy)-2-(pyrazin-2-yl)benzo[d]oxazole from 1 μM Exonl-Q46 aggregates; method calls the values IC50; read-out: Q46_RBA EC50_
readout.kind: EC50 (nM)
Numeric only. Scale: nM

Record excerpt, results attached:
Lookup: Return reported EC50; argument: COc1ccc(COc2cccc3c2CN(C(=O)c2ccc(OC)nc2)CC3)nc1
Found: 87.5

Lookup: Return reported EC50; argument: COc1ccc(COc2ccc3c(c2)C(=O)N(Cc2ccc(OC)nc2)CC3)nc1
Found: 98.5

Next up:
Lookup: Return reported EC50; argument: COc1ccc(COc2ccc3c(c2)CN(Cc2ccc(OC)nc2)CC3)nc1
Found: 137

====

# tested.on: aggregated MBP-HTT(1-89)Q46-His(6×) (Exonl-Q46) protein (Q46 protein aggregates) (Homo sapiens (Human), UniProt P42858, INS38QQQQQQQQQQQQQQQQQQQQQQQQQ)
# procedure.text: Q46 Radioligand Binding Assay
# measurement.parameters: same radioligand displacement on Exonl-Q46 aggregates; read-out: Q46_RBA EC50_
Measured EC50, listed per entry.

Record excerpt, results attached:
Lookup: Return reported EC50; argument: COc1ccc(C(=O)Nc2ccc3c(c2)CN(C(=O)c2ccc(OC)nc2)CC3)nc1
Found: < 100 nM

Lookup: Return reported EC50; argument: COc1ccc(OCCOc2ccc3c(c2)CN(C(=O)c2ccc(OC)nc2)CC3)nc1
Found: < 100 nM

Lookup: Return reported EC50; argument: COc1ccc(COc2ccc3c(c2)CN(C(=O)c2ccc(OCCF)nc2)CC3)nc1
Found: < 100 nM

Lookup: Return reported EC50; argument: COc1ccc(COc2cnc3c(c2)CN(C(=O)c2ccc(OC)nc2)CC3)nc1
Found: < 100 nM

Lookup: Return reported EC50; argument: COc1ccc(OCc2cn3c(n2)CN(C(=O)c2ccc(OC)nc2)CC3)nc1
Found: > 500 nM

Lookup: Return reported EC50; argument: COc1ccc(COc2ccc3c(c2)CCN(C(=O)c2ccc(OC)nc2)C3)nc1
Found: < 100 nM

Lookup: Return reported EC50; argument: COc1ccc(COc2ccc3c(c2)CN(C(=O)c2cn(C)c(=O)cn2)CC3)nc1
Found: < 100 nM

Lookup: Return reported EC50; argument: COc1ccc(COc2ccc3c(c2)CN(C(=O)N2CC4(COC4)C2)CC3)nc1
Found: > 500 nM

More entries:
Lookup: Return reported EC50; argument: CC(=O)N1CCc2ccc(OCc3ccc(O)cn3)cc2C1
Found: 100 to 500 nM

Lookup: Return reported EC50; argument: COc1ccc(COc2ccc3c(c2)CN(c2cc(OC)ccn2)CC3)nc1
Found: < 100 nM

====

# tested.on: aggregated MBP-HTT(1-89)Q46-His(6×) (Exonl-Q46) protein (Q46 protein aggregates) (Homo sapiens (Human), UniProt P42858, INS38QQQQQQQQQQQQQQQQQQQQQQQQQ)
# procedure.text: Q46 Radioligand Binding Assay
# measurement.parameters: same radioligand displacement on Exonl-Q46 aggregates; read-out: Q46_RBA EC50_
pEC50: −log10 of the molar value.
Measured pEC50, listed per entry.

Lookup: Return reported pEC50; argument: COc1ccc(COc2ccc3c(c2)CN(C(=O)c2ccc(=O)n(CCCF)c2)CC3)nc1
Found: > 7.00

More entries:
Lookup: Return reported pEC50; argument: COc1ccc(COc2cccc3c2CCN(C(=O)c2ccc(OC)nc2)C3)nc1
Found: > 7.00

Lookup: Return reported pEC50; argument: COc1ccc(COc2ccc3c(c2)CN(c2ccc(=O)n(C)n2)CC3)nc1
Found: > 7.00

====

# tested.on: aggregated MBP-HTT(1-89)Q46-His(6×) (Exonl-Q46) protein (Q46 protein aggregates) (Homo sapiens (Human), UniProt P42858, INS38QQQQQQQQQQQQQQQQQQQQQQQQQ)
# procedure.text: Q46 Radioligand Binding Assay
# measurement.parameters: displacement of 0.3 nM [3H3-methyl]-5-((5-methoxypyridin-2-yl)methoxy)-2-(pyrazin-2-yl)benzo[d]oxazole from 1 μM Exonl-Q46 aggregates; method calls the values IC50; read-out: Q46_RBA EC50_
So basically, if EC50 comes in under 6 nM it's TRUE, and if it's 6 nM or more it's FALSE.

Lookup: Find out if reported EC50 for COc1ccc(C(=O)N2CCc3ccc(OCc4ccc(OC)cn4)cc3C2)cc1 [Example 1.26] is less than 6 nM
Found: TRUE

More entries:
Lookup: Find out if reported EC50 for COc1ccc(COc2ccc3c(c2)CN(C(=O)c2cccnc2)CC3)nc1 [Example 1.9] is less than 6 nM
Found: FALSE

Lookup: Find out if reported EC50 for COc1ccc(COc2ccc3c(c2)CN(C(=O)c2ccc(OCCF)nc2)CC3)nc1 [Example 34] is less than 6 nM
Found: TRUE

Lookup: Find out if reported EC50 for COc1ccc(COc2ccc3c(c2)CN(C(=O)N2CC4(COC4)C2)CC3)nc1 [Example 4.4] is less than 6 nM
Found: FALSE

Lookup: Find out if reported EC50 for COc1ccc(COc2ccc3c(c2)CN(C(=O)c2cnc(OC)nc2)CC3)nc1 [Example 1.22] is less than 6 nM
Found: TRUE

Lookup: Find out if reported EC50 for COc1ccc(COc2ccc3c(c2)CN(c2cncc(OC)c2)CC3)nc1 [Example 6.1] is less than 6 nM
Found: TRUE

Lookup: Find out if reported EC50 for COc1ccc(COc2ccc3c(c2)CN(C(=O)c2ccc(OC)nc2)CCO3)nc1 [Example 25] is less than 6 nM
Found: FALSE

====

# tested.on: aggregated MBP-HTT(1-89)Q46-His(6×) (Exonl-Q46) protein (Q46 protein aggregates) (Homo sapiens (Human), UniProt P42858, INS38QQQQQQQQQQQQQQQQQQQQQQQQQ)
# procedure.text: Q46 Radioligand Binding Assay
# measurement.parameters: same radioligand displacement on Exonl-Q46 aggregates; read-out: Q46_RBA EC50_
Measured EC50, listed per entry.

Record excerpt, results attached:
Lookup: Return reported EC50; argument: COc1ccc(COc2ccc3c(c2)CN(C(=O)c2cnc(OC)nc2)CC3)nc1 [Example 1.22]
Found: < 100 nM

Lookup: Return reported EC50; argument: COc1ccc(COc2ccc3c(c2)CN(C(C)=O)CC3)nc1 [Example 1.7]
Found: < 100 nM

Lookup: Return reported EC50; argument: COc1ccc(COc2ccc3c(c2)CN(c2ccc(OC)cn2)CC3)nc1 [Example 8]
Found: < 100 nM

Lookup: Return reported EC50; argument: COc1ccc2c(c1)CN(C(=O)c1ccc(OC)nc1)CC2 [Example 1.6]
Found: 100 to 500 nM

Lookup: Return reported EC50; argument: COc1ccc(COc2cnc3c(c2)CN(c2cncc(OC)c2)CC3)nc1 [Example 6.3]
Found: < 100 nM

More entries:
Lookup: Return reported EC50; argument: COc1ccc(COc2ccc3c(c2)CN(c2cncc(OC)c2)CC3)nc1 [Example 6.1]
Found: < 100 nM

Lookup: Return reported EC50; argument: Cn1cc(C(=O)N2CCc3ccc(OCc4ccc(O)cn4)cc3C2)ccc1=O [Example 40]
Found: 100 to 500 nM

Lookup: Return reported EC50; argument: COc1ccc(COc2ccc3c(c2)CN(C(=O)N2CCc4cc(OC)ncc4C2)CC3)nc1 [Example 4.3]
Found: < 100 nM

====

# tested.on: aggregated MBP-HTT(1-89)Q46-His(6×) (Exonl-Q46) protein (Q46 protein aggregates) (Homo sapiens (Human), UniProt P42858, INS38QQQQQQQQQQQQQQQQQQQQQQQQQ)
# procedure.text: Q46 Radioligand Binding Assay
# measurement.parameters: displacement of 0.3 nM [3H3-methyl]-5-((5-methoxypyridin-2-yl)methoxy)-2-(pyrazin-2-yl)benzo[d]oxazole from 1 μM Exonl-Q46 aggregates; method calls the values IC50; read-out: Q46_RBA EC50_
readout.kind: pEC50
// pEC50 here means minus log10 of the molar concentration (mol/L)

Record excerpt, results attached:
Lookup: Return reported pEC50; argument: COc1ccc(COc2ccc3c(c2)CN(c2ccc(OC)nc2)CC3)nc1
Found: 8.65

Lookup: Return reported pEC50; argument: COc1ccc(C(=O)N2CCc3ccc(OCc4cnn(C)c4)cc3C2)cn1
Found: 7.28

Lookup: Return reported pEC50; argument: COc1ccc(COc2ccc3c(c2)C(C)N(C(=O)c2ccc(OC)nc2)CC3)nc1 (stereo not drawn)
Found: 7.84

More entries:
Lookup: Return reported pEC50; argument: COc1ccc(COc2ccc3c(c2)CN(C(=O)c2ccc(OC)nc2)CC3)nc1
Found: 8.91

Lookup: Return reported pEC50; argument: COc1ccc(COc2ccc3c(c2)CN(C(=O)OCc2ccc(OC)nc2)CC3)nc1
Found: 8.78

Lookup: Return reported pEC50; argument: COc1ccc(COc2cnc3c(c2)CN(C(=O)c2ccc(OC)nc2)CC3)nc1
Found: 8.24
